Kindly supply the reported IC50 values for the records listed here.
# Tested on: human topo IIα (Homo sapiens, UniProt P11388)
# Construct: purchased Inspiralis (Norwich, U.K.)
# Sequence (P11388 whole entry): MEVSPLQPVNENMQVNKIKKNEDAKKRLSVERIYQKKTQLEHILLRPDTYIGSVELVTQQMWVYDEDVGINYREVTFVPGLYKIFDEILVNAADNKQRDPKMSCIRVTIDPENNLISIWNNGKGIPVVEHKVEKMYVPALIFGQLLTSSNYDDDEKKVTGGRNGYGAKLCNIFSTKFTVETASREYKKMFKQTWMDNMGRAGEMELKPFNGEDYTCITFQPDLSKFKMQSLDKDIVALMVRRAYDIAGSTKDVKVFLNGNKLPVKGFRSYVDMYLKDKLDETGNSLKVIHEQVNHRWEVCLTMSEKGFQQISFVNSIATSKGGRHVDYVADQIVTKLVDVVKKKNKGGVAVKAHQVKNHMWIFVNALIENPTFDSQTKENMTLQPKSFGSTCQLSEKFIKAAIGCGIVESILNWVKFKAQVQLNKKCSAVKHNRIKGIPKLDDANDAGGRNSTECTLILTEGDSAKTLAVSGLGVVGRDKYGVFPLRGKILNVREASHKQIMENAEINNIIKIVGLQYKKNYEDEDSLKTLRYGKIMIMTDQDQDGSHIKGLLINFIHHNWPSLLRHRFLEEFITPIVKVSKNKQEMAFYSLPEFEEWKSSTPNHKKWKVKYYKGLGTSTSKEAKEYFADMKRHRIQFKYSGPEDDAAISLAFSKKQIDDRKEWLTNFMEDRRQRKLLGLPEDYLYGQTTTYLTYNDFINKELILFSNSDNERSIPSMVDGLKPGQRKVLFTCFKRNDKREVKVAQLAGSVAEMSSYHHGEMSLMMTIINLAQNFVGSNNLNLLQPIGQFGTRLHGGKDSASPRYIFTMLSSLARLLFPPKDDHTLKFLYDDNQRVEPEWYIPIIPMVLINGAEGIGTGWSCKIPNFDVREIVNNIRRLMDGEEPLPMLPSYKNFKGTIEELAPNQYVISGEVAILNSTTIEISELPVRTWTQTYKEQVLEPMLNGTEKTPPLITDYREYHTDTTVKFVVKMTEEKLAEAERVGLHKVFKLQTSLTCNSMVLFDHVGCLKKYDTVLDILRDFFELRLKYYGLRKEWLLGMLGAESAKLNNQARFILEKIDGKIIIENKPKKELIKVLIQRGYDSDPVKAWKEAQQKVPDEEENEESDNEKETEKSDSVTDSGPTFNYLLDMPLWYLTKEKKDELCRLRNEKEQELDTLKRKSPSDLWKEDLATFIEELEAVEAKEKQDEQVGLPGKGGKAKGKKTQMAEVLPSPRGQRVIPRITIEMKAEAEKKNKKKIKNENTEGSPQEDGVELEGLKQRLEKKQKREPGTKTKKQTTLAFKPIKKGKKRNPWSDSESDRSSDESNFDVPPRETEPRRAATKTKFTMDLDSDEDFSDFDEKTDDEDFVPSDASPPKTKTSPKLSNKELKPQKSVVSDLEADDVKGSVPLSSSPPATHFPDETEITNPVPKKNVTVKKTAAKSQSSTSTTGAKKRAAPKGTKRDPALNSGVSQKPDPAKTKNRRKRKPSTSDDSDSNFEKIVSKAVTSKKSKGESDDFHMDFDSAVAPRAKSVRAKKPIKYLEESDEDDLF
# Measurement description: HTS relaxation assay of human topo IIα
# Assay type: biochemical
Give bare numbers, in µM.

> print(dat)
                           molecular.string   val
1  CC(=O)Nc1nc(C)c(-c2csc(Nc3cccc(O)c3)n2)s1  33.7
2    CC(=O)Nc1nc(C)c(-c2csc(Nc3ccccc3)n2)s1   357
3  CC(=O)Nc1nc(C)c(-c2csc(Nc3ccc(C(=O)O)cc3)n2)s1   120

Return reported IC50 values for all items listed beneath this line.
1. Cc1cc(NS(=O)(=O)c2ccc(Nc3nc(-c4sc(N)nc4C)cs3)cc2)no1
2. CC(=O)Nc1nc(C)c(-c2csc(Nc3cccc(C(=O)O)c3)n2)s1

-- reply
1. 30.1
2. 134

---

# Tested on: human topo IIα (Homo sapiens, UniProt P11388)
# Construct: purchased Inspiralis (Norwich, U.K.)
# Measurement description: Human topoisomerase II competitive ATPase assay
# Format: biochemical
# Protocol conditions: ATP 0.05 (mM per method); read-out: IC50 at c(ATP) 0.05
Readout: IC50 (mM)
Numbers only, in mM.

Reported IC50 ( Cc1nc(N)sc1-c1csc(Nc2ccc(C(F)(F)F)cc2)n1 ) = 0.0088

---

# Tested on: human topo IIα (Homo sapiens)
# Construct: purchased Inspiralis (Norwich, U.K.)
# Measurement description: Human topoisomerase II competitive ATPase assay
# Type: biochemical
# Protocol conditions: ATP 2 (mM per method); read-out: IC50 at c(ATP) 2
Readout: IC50 (mM)
Answers are plain numbers, in mM.

Known value: human topo IIα (Homo sapiens) IC50 of the molecule Cc1nc(N)sc1-c1csc(Nc2ccc(C(F)(F)F)cc2)n1 equals 0.0254

---

# Tested on: human topo IIα (Homo sapiens, UniProt P11388)
# Construct: purchased Inspiralis (Norwich, U.K.)
# Measurement description: Human topoisomerase II competitive ATPase assay
# Format: biochemical
# Protocol conditions: ATP 0.25 (mM per method); read-out: IC50 at c(ATP) 0.25
Readout: IC50 (mM)
Give bare numbers, in mM.

Reported IC50 ( Cc1nc(N)sc1-c1csc(Nc2ccc(C(F)(F)F)cc2)n1 ) = 0.0183

---

# Tested on: human topo IIα (Homo sapiens)
# Construct: purchased Inspiralis (Norwich, U.K.)
# Measurement description: Human topoisomerase II competitive ATPase assay
# Assay type: biochemical
# Protocol conditions: ATP 0.1 (mM per method); read-out: IC50 at c(ATP) 0.1
Readout: IC50 (mM)
One number for each entry, in mM.

Reported IC50 ( Cc1nc(N)sc1-c1csc(Nc2ccc(C(F)(F)F)cc2)n1 ) = 0.0094

---

# Tested on: human topo IIα (Homo sapiens, UniProt P11388)
# Construct: purchased Inspiralis (Norwich, U.K.)
# Measurement description: HTS relaxation assay of human topo IIα
# Type: biochemical
Kindly supply the reported pIC50 values for the records listed here.
Numbers only, as −log10 of the molar value.

Example cases with answers are listed next.
> print(dat)
                           molecular.string   val
1  Cc1nc(N)sc1-c1csc(Nc2ccc(S(N)(=O)=O)cc2)n1  4.15
2        Cc1cc(O)ccc1Nc1nc(-c2sc(N)nc2C)cs1  4.45
3  Cc1nc(N)sc1-c1csc(Nc2ccc(C(=O)O)c(O)c2)n1  4.42
4  COc1ccc(Nc2nc(-c3sc(NC(C)=O)nc3C)cs2)cc1  4.64

Return reported pIC50 values for all items listed beneath this line.
1. Cc1nc(N)sc1-c1csc(Nc2ccc(C(F)(F)F)cc2)n1
2. CCC(=O)Nc1nc(C)c(-c2csc(Nc3ccc(C(=O)O)cc3)n2)s1
3. CC(=O)c1ccc(Nc2nc(-c3sc(N)nc3C)cs2)cc1
4. CC(=O)Nc1nc(C)c(-c2csc(Nc3ccc(O)cc3)n2)s1
5. CC(=O)Nc1ccc(Nc2nc(-c3sc(NC(C)=O)nc3C)cs2)cc1

-- reply
1. 4.48
2. 3.91
3. 3.65
4. 3.71
5. 4.22
